tested on: MST3; construct: gene STK24; conditions: concentration: 1 μM, replicates: in singlicate; n = 1;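 note: KINOMEscan kinase panel screen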
# %Inh listing for each entry below
readout-type: %Inh

                                   molecule  readout_type  result
0  COc1cc(Nc2nccc(N3CCC(NC(=O)Nc4cc(C)ccc4C)C3)n2)cc(OC)c1OC (stereo not drawn)          %Inh      6%
1                Cc1ccccc1-n1cnc2c(N)ncnc21          %Inh     18%
2  Cn1ccc2ncnc(Oc3cccc(C(=O)Nc4ccccc4)c3)c21          %Inh     20%

###

# %Inh listing for each entry below
test system: FGFR3; conditions: concentration: 1 μM, replicates: in singlicate; n = 1
readout-type: %Inh (%)

>>> print(df.to_string())
                                   compound  readout_type  measured_number
0  COc1cccc(NC(=O)NC2CCN(c3ccnc(Nc4ccc(F)cc4)n3)C2)c1 (stereo not shown) [GSK1379721]          %Inh                6
1  COc1cc(Nc2nccc(N3CCC(NC(=O)Nc4cc(C)ccc4C)C3)n2)cc(OC)c1OC (stereo not shown) [GSK1379762]          %Inh               30
2  COc1cc2nccc(Nc3ccc(NC(=O)c4ccc(C)cc4)c(O)c3)c2cc1OC.Cl [GW440132]          %Inh                2
3  Cc1cc(-c2ccc3c(c2)CC[C@@H](N[C@@H](C)c2ccccc2)C3)cnc1N.Cl [GW412617]          %Inh               56
4  COc1ccc(Nc2nccc(NCCNC(=O)Nc3ccccc3F)n2)cc1 [GSK1379901]          %Inh                6
5  O=C(Nc1n[nH]c2cc(-c3cccc(F)c3F)ccc12)C1CC1 [SB-733894]          %Inh                0
6   O=C(Nc1ccccc1)Nc1cccc(Oc2ccc3nccn3n2)c1          %Inh                0

###

tested on: MINK; construct: gene MINK1; conditions: concentration: 1 μM, replicates: in singlicate; n = 1
# %Inh listing for each entry below
readout-type: %Inh (%)

>>> print(df.to_string())
                                   compound  measured_number
0  O=C(Nc1n[nH]c2nc(-c3nccs3)c(Br)cc12)C1CC1 [SB-742251]               20
1  COc1ccccc1-c1ccc2c(NC(=O)C3CC3)n[nH]c2n1 [SB-711239]                6
2    Fc1cccc(COc2nnc(-c3ccc4c(c3)CCO4)o2)c1                1

###

# %Inh listing for each entry below
tested on: FYN; conditions: concentration: 1 μM, replicates: in singlicate; n = 1
readout-type: %Inh (%)

In [3]: df
Out[3]:
                                   molecule  measured_number
0  COC(=O)c1c(-c2ccccc2)c2cc(OC)ccc2c(=O)n1Cc1ccccc1                0
1  Cc1ccc(-c2cc(-c3c[nH]nc3-c3ccccn3)ccn2)cc1 [GW684088]                0
2  COc1ccccc1CNC(=O)c1cc(C(=O)c2ccccc2C)c[nH]1 [GSK364507]               42
3    Cc1ccccc1-n1cnc2c(N)ncnc21 [SKF-97510]                8
4  Cc1c(O)cccc1Nc1ccnc2ccc(C(F)(F)F)cc12.Cl [GW466413]               68
5  COc1cccc(-c2cc(-c3c[nH]nc3-c3ccccn3)ccn2)c1 [GW680338]               11
6    CCn1c(-c2ccccn2)nc2cnccc21 [SB-736398]                0
7  CC(=O)Nc1nc2cnc(Nc3cc(NC(=O)c4cccc(CCC#N)c4)ccc3C)nc2s1                4
8   CCn1c(-c2cccnc2O)nc2cnccc21 [SB-736715]                0
